Origin of the recorded values: ChEMBL document CHEMBL3988442

Tested on: Wolbachia pipientis
Test: Anti-Wolbachia Cell-Based Screen
Assay type: functional
Set-up: scale not given: in the data most compounds retested in dose-response had high values
Conditions: 5 µM
Among all 48,000 compounds or so, about 13,000 (27%) showed an effect of 50% or more. The list shows a part of the results.
For each of the compounds below, state its Percent Effect.
Answers are plain numbers, in %.

{"columns": ["compound", "readout-units", "numeric-value"],
 "data": [
  ["CC(NC(=O)NCC1(c2ccc(F)cc2)CC1)c1nncn1C (stereo not given)", "%", 98.23],
  ["CC(NC(=O)NCC1(c2ccc(F)cc2)CCCC1)c1nncn1C (stereo not given)", "%", 121.9],
  ["Cc1cccc(CN2CC[C@@H]3O[C@@H](C(=O)N4CCN(C)CC4)C[C@@H]32)n1", "%", 123],
  ["CN1CCN(C(=O)[C@H]2C[C@H]3[C@H](CCN3Cc3cccs3)O2)CC1.O=C(O)C(F)(F)F.O=C(O)C(F)(F)F", "%", 106.2]
]}

Next compound, Percent Effect to be filled in.
Given the entry Cc1cccc(CN2CCN(C(=O)[C@@H]3CSCN3C)CC2)c1 , report its measured Percent Effect.
0.2793

====

Test system: Wolbachia pipientis
Assay: Anti-Wolbachia Cell-Based Screen
Format: functional
Design: scale not given: in the data most compounds retested in dose-response had high values
Settings: 5 µM
Among all 48,000 compounds or so, about 13,000 (27%) showed an effect of 50% or more. This is one part of the list.
Just a reminder that ties go to false (0): only Percent Effect strictly below 30% counts as true (1).

# count of solved cases: 5
{"columns": ["compound", "classification"],
 "data": [
  ["Cc1ccc(CN2CCN(Cc3ccc4nonc4c3)CC2=O)cc1", "true (1)"],
  ["Cn1nc(Cn2ccnc2)c2c1CN(c1ncccn1)C2.O=C(O)C(F)(F)F", "true (1)"],
  ["c1cncc(OCc2noc3c2CN(Cc2ccoc2)CC3)c1", "true (1)"],
  ["Cn1nc(COc2cccnc2)c2c1CCN(c1ncccn1)C2", "false (0)"],
  ["CC(C)[C@H](N)C(=O)N1CCSc2ccccc2C1.Cl", "false (0)"]
]}

Given COCCO[C@@H]1C[C@H]2CN(C(=O)c3cnccn3)CCN2C1 , is recorded Percent Effect strictly lower than 30%?
true (1)

Same lookup for Cc1cnc(N2CCc3onc(COc4cccnc4)c3C2)nc1 , please.
false (0)

Field entry: Cc1cnc(N2CCc3c(c(COc4cncnc4)nn3C)C2)nc1
false (0)

How about CC(C)(C)c1noc(CCC(=O)N(CC2CCOC2)C2CC2)n1 (stereo unspecified) ?
true (1)

Continue with N#Cc1c(Cl)nsc1N1CCN(CC2CCCCC2)CC1
true (1)

====

Test system: Wolbachia pipientis
Test: Anti-Wolbachia Cell-Based Screen
Type: functional
Set-up: scale not given: in the data most compounds retested in dose-response had high values
Details: 5 µM
The whole screen tested about 48,000 compounds, of which about 13,000 (27%) showed an effect of 50% or more. Some of the results follow.
Exercise: for every item that follows, state its recorded Percent Effect.
Numbers only, in %.

Consider the worked cases shown below.
{"columns": ["compound", "readout-units", "Percent Effect"],
 "data": [
  ["COC(=O)N1CCCC(C(=O)NCCc2c[nH]c3cc(C)ccc23)C1 (centres undefined)", "%", 127.8],
  ["Cc1n[nH]c(C2CN(CC(=O)NCc3ccco3)CCO2)n1 (centres undefined)", "%", 14.88],
  ["O=C(CCNS(=O)(=O)c1ccccc1)N1CCOC(c2ccccc2)C1 (centres undefined)", "%", 1.988]
]}

Count: 4. Required value per item: Percent Effect.
1. CC(=O)NCC(=O)N1CCOC(c2cccc(N)n2)C1 (centres undefined)
2. COc1ccc(CCNC(=O)C2CCCOC2)c(Cl)c1 (centres undefined)
3. CNc1cc(C)nc(-c2cc(NC)nc3[nH]ccc23)n1
4. O=C(Nc1cnccn1)[C@H]1COC[C@H]2CN(C3CCCC3)C[C@H]21.O=C(O)C(F)(F)F

128.4
0.5663
82.65
12.06

====

Hi there, I'd appreciate the recorded Percent Effect for every entry that follows.
System: Wolbachia pipientis
Assay: Anti-Wolbachia Cell-Based Screen
Type: functional
Parameters: scale not given: in the data most compounds retested in dose-response had high values
Settings: 5 µM
Among all 48,000 compounds or so, about 13,000 (27%) showed an effect of 50% or more. The list shows a part of the results.
One number for each entry, in %.

Past entries and their recorded results:
{"columns": ["molecule", "Percent Effect / %"],
 "data": [
  ["O=C(O)c1ccc(N2CCC(Oc3ccc(Cl)cc3)CC2)nc1", 7.355],
  ["CC(C)N1CCCC(C(=O)NCc2noc(Cc3ccccc3)n2)C1 (stereo not drawn)", -0.7063],
  ["CN1CCC(N(C)CCC(=O)N2CCC(Oc3ccc(Cl)cc3)CC2)C1 (stereo not drawn)", -10.05],
  ["O=C(CCc1cc2n(n1)CCCN(C(=O)c1cccnc1)C2)NC1CC1", -4.751],
  ["CCc1cc(C(=O)N2CCCn3nc(CCC(=O)O)cc3C2)cs1", -7.139],
  ["O=C(NCCc1cccc(F)c1)NCC(O)c1cccc(F)c1 (stereo not drawn)", 4.017],
  ["CCOC(=O)CNC(=O)C1CN(C(=O)c2cnccn2)C1", 12.27],
  ["COc1ccc(OC2CCN(C(=O)[C@@H](N)Cc3c[nH]cn3)CC2)cc1", 108.9],
  ["CC(=O)N1N=C(Cc2ccccc2)OC1C(=O)NCC(C)C (stereo not drawn)", 119.9],
  ["O=C(CCc1cc2n(n1)CCCN(C(=O)c1ccccn1)C2)NC1CC1", 1.644]
]}

Lab note: each molecule below needs its Percent Effect filled in.
1. O=C(O)CCc1cc2n(n1)CCCN(C(=O)c1ccc3cc[nH]c3c1)C2
2. CN(C(=O)c1ccco1)C1CCC(NC(=O)OC(C)(C)C)CC1 (stereo not drawn)
3. CCOC(=O)CNC(=O)C1OC(c2ccccc2)=NN1C(C)=O (stereo not drawn)
4. COc1ccnc(N2CCN(C(=O)c3csnn3)CC2)n1
5. O=C(O)CCc1cc2n(n1)CCCN(C(=O)c1cc3ccccc3s1)C2
6. COC(=O)N1CCCC(NC(=O)NCc2ccc(C)nc2)C1 (stereo not drawn)
7. Cc1cc2n(n1)CC(CNC1CCN(Cc3ccccc3C)CC1)CN2 (stereo not drawn)

1. -27.67
2. -29.92
3. 105.7
4. -4.272
5. 6.416
6. 12.17
7. -1.399

====

Test system: Wolbachia pipientis
Assay: Anti-Wolbachia Cell-Based Screen
Assay type: functional
Set-up: scale not given: in the data most compounds retested in dose-response had high values
Details: 5 µM
In all, about 48,000 compounds went through this assay and about 13,000 (27%) showed an effect of 50% or more. The list shows a part of the results.
Field: Percent Effect. Provide a value for each of the molecules that follow.
Give bare numbers, in %.

{"columns": ["molecule", "Percent Effect [%]"],
 "data": [
  ["O=C(NCC(F)(F)F)c1coc(COc2cccc(F)c2)n1", -8.912],
  ["O=C(Cn1nnn(-c2cccs2)c1=O)N(CC1CCOC1)C1CC1 (configuration not stated)", -6.322],
  ["CN1CCN(Cc2ccccc2Oc2ccc(C(N)=O)cn2)CC1", -9.578]
]}

Could I get Percent Effect for every one of these entries?
1. COc1ccsc1C(=O)Nc1cc(Cl)c(=O)n(C)c1
2. CCN(CC)C1COc2c(cc(Br)c(C)c2Br)C1=O (configuration not stated)

-0.9546
114.2

Please report Percent Effect for every entry that follows.
1. CN1CC[C@H](c2ccccc2)[C@@H]2[C@H]1CCCCN2C(=O)c1cnccn1
2. NC(=O)c1ccccc1Oc1cccc(C2CCCNC2)n1 (configuration not stated)
3. CCN(C)c1ncnc2c1CCN(c1ccc(C)nn1)CC2
4. Cc1c(Br)cc2c(c1C)OCC(N(C)C)C2=O (configuration not stated)

-5.726
178.3
88.89
95.66

For every item in the list below, what is its measured Percent Effect?
1. CCN(CC)C1COc2ccc(Br)cc2C1=O (configuration not stated)
2. CCN(CC)c1ncnc2c1CCN(CC1CCOCC1)CC2.O=C(O)C(F)(F)F
3. NC(=O)c1cc(C2CCCN(CCCOc3ccccc3)C2)n[nH]1 (configuration not stated)

1. 104.3
2. -1.394
3. -3.314

====

Tested on: Wolbachia pipientis
Assay: Anti-Wolbachia Cell-Based Screen
Assay type: functional
Parameters: scale not given: in the data most compounds retested in dose-response had high values
Settings: 5 µM
Screen size: about 48,000 compounds; about 13,000 (27%) showed an effect of 50% or more. This is one part of the list.
measure: Percent Effect

{"columns": ["compound", "Percent Effect"],
 "data": [
  ["Cc1cnccc1N1CCCN(C(=O)CCCn2ccnc2C)CC1", "-4.474%"]
]}

Provide Percent Effect values for the following items, in order.
1. CC(C)OCCN1CCN(C(=O)c2cccc(CC#N)c2)CC1
2. Cc1nc(C2CCCN2CCCNS(C)(=O)=O)no1 (stereo not drawn)
3. CC(NC(C)(C)CN)c1ccccc1 (stereo not drawn)
4. CN(C)C(=O)N1CCN(C(=O)C(c2ccccc2F)N(C)C)CC1 (stereo not drawn)
5. CC(C)CNC(=O)c1cc2c(s1)CCN2Cc1cccnc1
6. O=C(CN1CCS(=O)(=O)CC1)NC1CCOc2ccccc21 (stereo not drawn)
7. Cn1ccnc1CN1CCCN(C(=O)c2ccc3cc[nH]c3c2)CC1

["4.967%", "5.107%", "-0.2011%", "0.4283%", "-6.846%", "5.265%", "138.1%"]

Hi, could you look up Percent Effect for each item in my list?
1. CC(C)CNC(=O)c1cc2c(s1)CCN2S(C)(=O)=O
2. COCCNC(=O)C1CCCN1S(=O)(=O)c1sc(=O)[nH]c1C (stereo not drawn)
3. CCn1ccnc1CN1CCCN(C(=O)c2cccc(C#N)c2)CC1
4. O=S(=O)(C/C=C/c1ccccc1)Cc1nc(C2CC2)no1
5. CN(C)c1cc(C(=O)N2CCCN(Cc3nccn3C)CC2)ccn1

["101.5%", "-10.99%", "-3.279%", "14.62%", "107%"]
